From: paper PMC7174603

# target.or.system: MaltOBP9 (Monochamus alternatus)
# Construct: gene obp9; said to encode mature protein (clone primer starts at ATG)
# Sequence (A0A1I9HZK8 1-140 limits assumed): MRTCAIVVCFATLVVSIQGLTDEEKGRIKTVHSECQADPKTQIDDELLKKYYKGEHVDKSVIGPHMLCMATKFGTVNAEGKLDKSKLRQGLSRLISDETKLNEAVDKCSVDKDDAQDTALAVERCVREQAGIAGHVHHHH
# protocol: fluorescence titration, Scatchard analysis
# Format: binding
# protocol.conditions: read-out: MaltOBP9 / pH7.4
measure.name: Kd
Note to self: number, then unit, no commentary.

Reported Kd, compound `c1ccc(Nc2cccc3ccccc23)cc1` : ____
1700 nM
